MEASUREMENT_TARGET: Neuraminidase (Influenza A virus, UniProt B4URF0)
Sequence (B4URF0 whole entry): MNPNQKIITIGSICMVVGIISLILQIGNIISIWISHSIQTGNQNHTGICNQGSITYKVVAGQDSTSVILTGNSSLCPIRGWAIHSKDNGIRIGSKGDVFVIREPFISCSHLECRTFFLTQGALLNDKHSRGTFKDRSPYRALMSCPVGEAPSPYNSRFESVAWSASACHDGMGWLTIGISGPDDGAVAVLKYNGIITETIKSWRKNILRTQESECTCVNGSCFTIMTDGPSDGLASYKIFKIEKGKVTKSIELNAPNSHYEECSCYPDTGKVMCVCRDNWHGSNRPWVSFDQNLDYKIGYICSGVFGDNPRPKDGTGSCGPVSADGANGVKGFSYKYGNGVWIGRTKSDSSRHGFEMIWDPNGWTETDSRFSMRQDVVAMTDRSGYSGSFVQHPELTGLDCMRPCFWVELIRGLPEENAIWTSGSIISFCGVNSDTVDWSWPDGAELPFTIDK
ASSAY_PROCEDURE: Inhibition of Influenza A virus type A H3N2 neuraminidase
EXPERIMENTAL_CONTEXT: read-out: IC50
pIC50: −log10 of the molar value. Where a SMILES comes first, the peptide text is derived from it. [ ]: non-standard residue; d: D form. The star is where a group is joined. Hyp = O=C(O)[C@@H]1C[C@@H](O)CN1; Boc = CC(C)(C)OC(=O)*; NHOH = ON*
Please note: 1.0 applies when pIC50 is 5 or greater, and 0.0 applies otherwise.

## Input Reported pIC50 at or above 5? "C[C@H](NC(=O)OC(C)(C)C)C(=O)N1C[C@@H](N)C[C@H]1C(=O)O"
## Output 0.0

## Input Does COC(=O)[C@@H]1C[C@@H](O)CN1C(=O)[C@H](C)NC(=O)OC(C)(C)C (Boc-Ala-[Hyp]-OMe) have a reported pIC50 of at least 5?
## Output 0.0

## Input Hello, I need to know if "CC[C@H](C)[C@H](NC(=O)OC(C)(C)C)C(=O)N1C[C@@H](N)C[C@H]1C(=O)O" has measured pIC50 not below 5. Thanks!
## Output 1.0

## Input Determine whether this molecule has pIC50 no lower than 5: "O=C(O)[C@@H]1C[C@@H](O)CN1C(=O)Cc1ccccc1Nc1c(Cl)cccc1Cl"
## Output 0.0

## Input Record CC(C)[C@H](NC(=O)OC(C)(C)C)C(=O)N1C[C@H](O)C[C@H]1C(=O)NO (Boc-Val-[Hyp]-{NHOH}) ; criterion: pIC50 no lower than 5. Met?
## Output 1.0

---

Please provide measured IC50 for the entries that follow.
MEASUREMENT_TARGET: Neuraminidase (Influenza A virus, UniProt B4URF0)
ASSAY_PROCEDURE: Inhibition of Influenza A virus type A H3N2 neuraminidase
EXPERIMENTAL_CONTEXT: read-out: Log IC50 (converted)
Where a SMILES comes first, the peptide text is derived from it. [ ]: non-standard residue; d: D form. The star is where a group is joined. Hyp = O=C(O)[C@@H]1C[C@@H](O)CN1; Boc = CC(C)(C)OC(=O)*; NHOH = ON*
The reply should be a number in µM, with the unit left off.

## Input Identify measured IC50 associated with "C[C@H](NC(=O)OC(C)(C)C)C(=O)N1C[C@@H](N)C[C@H]1C(=O)NO"
## Output 40.7

## Input Fill in reported IC50 for this entry: "N[C@H]1C[C@@H](C(=O)O)N(C(=O)Cc2ccccc2Nc2c(Cl)cccc2Cl)C1"
## Output 39.8

## Input Supply IC50 value. Item: "CC(C)(C)OC(=O)N[C@@H](Cc1ccccc1)C(=O)N1C[C@@H](N)C[C@H]1C(=O)NO"
## Output 10.7

## Input Return reported IC50. Input molecule: CC(C)[C@H](NC(=O)OC(C)(C)C)C(=O)N1C[C@H](O)C[C@H]1C(=O)O (Boc-Val-[Hyp]-OH)
## Output 14.1

## Input Quickly give me recorded IC50 for "CC(C)[C@H](NC(=O)OC(C)(C)C)C(=O)N1C[C@@H](N)C[C@H]1C(=O)O"
## Output 13.2

## Input Read the entry "COC(=O)[C@@H]1C[C@@H](N)CN1C(=O)[C@@H](N)CC(C)C" and write its reported IC50.
## Output 191

## Input Please indicate IC50 recorded for "CC(C)(C)OC(=O)N[C@@H](Cc1ccccc1)C(=O)N1C[C@@H](N)C[C@H]1C(=O)O"
## Output 6.46

## Input Respond only with IC50 recorded for "CC(C)C[C@H](NC(=O)OC(C)(C)C)C(=O)N1C[C@@H](N)C[C@H]1C(=O)NO"
## Output 17.4

## Input Complete the entry with IC50 for "O=C(O)[C@@H]1C[C@@H](O)CN1C(=O)Cc1ccccc1Nc1c(Cl)cccc1Cl"
## Output 49

## Input Give IC50 for CC(C)C[C@H](NC(=O)OC(C)(C)C)C(=O)N1C[C@H](O)C[C@H]1C(=O)O (Boc-Leu-[Hyp]-OH)
## Output 33.9

## Input Read the entry "CC[C@H](C)[C@H](NC(=O)OC(C)(C)C)C(=O)N1C[C@@H](N)C[C@H]1C(=O)O" and write its reported IC50.
## Output 7.94

## Input Answer with the recorded IC50 for the molecule listed here: "CC[C@H](C)[C@H](NC(=O)OC(C)(C)C)C(=O)N1C[C@@H](N)C[C@H]1C(=O)NO"
## Output 5.89

## Input Dear colleague, please send me the reported IC50 for CC(C)C[C@H](NC(=O)OC(C)(C)C)C(=O)N1C[C@H](O)C[C@H]1C(=O)NO (Boc-Leu-[Hyp]-{NHOH}) when you can.
## Output 11

## Input Provide measured IC50 value, entry: CC(C)[C@H](NC(=O)OC(C)(C)C)C(=O)N1C[C@H](O)C[C@H]1C(=O)NO (Boc-Val-[Hyp]-{NHOH})
## Output 17.8

## Input Report IC50 for "CSCC[C@H](NC(=O)OC(C)(C)C)C(=O)N1C[C@@H](N)C[C@H]1C(=O)O"
## Output 4.37

## Input Return value of IC50 for input "N[C@H]1C[C@@H](C(=O)NO)N(C(=O)Cc2ccccc2Nc2c(Cl)cccc2Cl)C1" , no commentary.
## Output 8.51

## Input Please supply the value of reported IC50 for the item "COC(=O)[C@@H]1C[C@H](N)CN1C(=O)[C@H](C)NC(=O)OC(C)(C)C"
## Output 269

## Input Specify IC50 for CC(C)(C)OC(=O)N[C@@H](Cc1ccccc1)C(=O)N1C[C@H](O)C[C@H]1C(=O)NO (Boc-Phe-[Hyp]-{NHOH}) and stop.
## Output 11

## Input Supply recorded IC50 for CC[C@H](C)[C@H](NC(=O)OC(C)(C)C)C(=O)N1C[C@H](O)C[C@H]1C(=O)NO (Boc-Ile-[Hyp]-{NHOH}) here.
## Output 6.03

## Input Note down IC50 recorded for "CC(=O)N1C[C@H](O)C[C@@H]1C(=O)O"
## Output 282

## Input Report measured IC50; entry is "C[C@H](NC(=O)OC(C)(C)C)C(=O)N1C[C@@H](N)C[C@H]1C(=O)O"
## Output 53.7

## Input Return the recorded IC50 value; entry: "O=C(NO)[C@@H]1C[C@@H](O)CN1C(=O)Cc1ccccc1Nc1c(Cl)cccc1Cl"
## Output 20

## Input State its IC50 for this molecule: CC(C)(C)OC(=O)N[C@@H](Cc1ccccc1)C(=O)N1C[C@H](O)C[C@H]1C(=O)O (Boc-Phe-[Hyp]-OH)
## Output 7.59

## Input Please give the documented IC50 of COC(=O)[C@@H]1C[C@@H](O)CN1C(=O)[C@H](C)NC(=O)OC(C)(C)C (Boc-Ala-[Hyp]-OMe)
## Output 288
